tested on: Leishmania major; experiment: Antileishmanial activity against Leishmania major MHOM/IL/81/FE/BNI promastigotes infected in BALB/c mouse peritoneal macrophages assessed as decrease in infection rate after 48 hrs by fluorescence microscopy; format: functional, organism-based

MOLECULE: COc1cc(OC)c2c(C)[n+](-c3ccc(C)cc3)c(C)cc2c1.F[B-](F)(F)F
MEASURED_ON: Leishmania major
EC50 / nM: 92
//
MOLECULE: C[C@@H]1[C@H](O)[C@@H](C)/C=C/C=C/C=C/C=C/C=C/C=C/C=C/[C@H](O[C@@H]2O[C@H](C)[C@@H](O)[C@H](N)[C@@H]2O)C[C@@H]2O[C@](O)(C[C@@H](O)C[C@@H](O)[C@H](O)CC[C@@H](O)C[C@@H](O)CC(=O)O[C@H]1C)C[C@H](O)[C@H]2C(=O)O [AMPHOTERICIN B]
MEASURED_ON: Leishmania major
EC50 / nM: 75
//
MOLECULE: COc1cc(OC)c2c(C)[n+](-c3ccc(C(C)C)cc3)c(C)cc2c1.O=C([O-])C(F)(F)F
MEASURED_ON: Leishmania major
EC50 / nM: 158
//
MOLECULE: COc1cc(OC)c2c(C)[n+](-c3c(C)cccc3C)c(C)cc2c1.F[B-](F)(F)F
MEASURED_ON: Leishmania major
EC50 / nM: 241

The values you see were collected from ChEMBL document CHEMBL1143311.
